FYI, the data here is from the supplement of paper PMC8882468.

Each entry below carries its reported CTG-3D luminescence at 96 h.
Test system: HCI-027 (organoid from a triple-negative breast cancer xenograft)
Experiment: CTG-3D luminescence at 96 h relative to day-0 seeding control (ratio to day 0); higher = more growth / less cytotoxicity; PDxO 3D drug screen (set 2), 96 h, CTG-3D normalised to day-0 seeding control.
Conditions: 0.00025 µM; days in culture: 186
endpoint.name: CTG-3D luminescence at 96 h

Nc1cc(C(F)(F)F)c(-c2cc(N3CCOCC3)nc(N3CCOCC3)n2)cn1 [buparlisib]
1.61
CO[C@H]1C[C@@H]2CC[C@@H](C)[C@@](O)(O2)C(=O)C(=O)N2CCCC[C@H]2C(=O)O[C@H]([C@H](C)C[C@@H]2CC[C@@H](O)[C@H](OC)C2)CC(=O)[C@H](C)/C=C(\C)[C@@H](O)[C@@H](OC)C(=O)[C@H](C)C[C@H](C)/C=C/C=C/C=C/1C [rapamycin]
0.887
CC(=O)O[C@@]12CO[C@@H]1C[C@H](O)[C@@]1(C)C(=O)[C@H](O)C3=C(C)[C@@H](OC(=O)[C@H](O)[C@@H](NC(=O)OC(C)(C)C)c4ccccc4)C[C@@](O)([C@@H](OC(=O)c4ccccc4)[C@H]21)C3(C)C [docetaxel]
1.25
CC(=O)c1c(C)c2cnc(Nc3ccc(N4CCNCC4)cn3)nc2n(C2CCCC2)c1=O [palbociclib]
1.93
CC(C)n1nc(-c2ccc3oc(N)nc3c2)c2c(N)ncnc21 [sapanisertib]
1.54

---

Test system: HCI-015 (organoid from a triple-negative breast cancer xenograft)
Test: CTG-3D luminescence at 96 h relative to day-0 seeding control (ratio to day 0); higher = more growth / less cytotoxicity; PDxO 3D drug screen (set 2), 96 h, CTG-3D normalised to day-0 seeding control.
Conditions: 0.1 µM; days in culture: 355
endpoint.name: CTG-3D luminescence at 96 h

Cc1c(CN2CCN(C(=O)[C@H](C)O)CC2)sc2c(N3CCOCC3)nc(-c3cnc(N)nc3)nc12
2.04
CO[C@H]1C[C@@H]2CC[C@@H](C)[C@@](O)(O2)C(=O)C(=O)N2CCCC[C@H]2C(=O)O[C@H]([C@H](C)C[C@@H]2CC[C@@H](OCCO)[C@H](OC)C2)CC(=O)[C@H](C)/C=C(\C)[C@@H](O)[C@@H](OC)C(=O)[C@H](C)C[C@H](C)/C=C/C=C/C=C/1C
1.79
CCOc1ccn(-c2ccc(F)cc2)c(=O)c1C(=O)Nc1ccc(Oc2ccnc(N)c2Cl)c(F)c1
1.76
COc1cccc2c1C(=O)c1c(O)c3c(c(O)c1C2=O)C[C@@](O)(C(=O)CO)C[C@@H]3O[C@H]1C[C@H](N)[C@@H](O)[C@H](C)O1 [epirubicin]
0.761

---

System: HCI-012 (organoid from a breast cancer xenograft)
Test: CTG-3D luminescence at 96 h relative to day-0 seeding control (ratio to day 0); higher = more growth / less cytotoxicity; PDxO 3D drug screen (set 2), 96 h, CTG-3D normalised to day-0 seeding control.
Settings: 0.00025 µM; days in culture: 256
Each entry below carries its reported CTG-3D luminescence at 96 h.
endpoint.name: CTG-3D luminescence at 96 h

COc1cccc2c1C(=O)c1c(O)c3c(c(O)c1C2=O)C[C@@](O)(C(=O)CO)C[C@@H]3O[C@H]1C[C@H](N)[C@@H](O)[C@H](C)O1 [epirubicin]
2.22
CO[C@H]1C[C@@H]2CC[C@@H](C)[C@@](O)(O2)C(=O)C(=O)N2CCCC[C@H]2C(=O)O[C@H]([C@H](C)C[C@@H]2CC[C@@H](O)[C@H](OC)C2)CC(=O)[C@H](C)/C=C(\C)[C@@H](O)[C@@H](OC)C(=O)[C@H](C)C[C@H](C)/C=C/C=C/C=C/1C [rapamycin]
1.95

---

System: HCI-016 (organoid from a triple-negative breast cancer xenograft)
Test: CTG-3D luminescence at 96 h relative to day-0 seeding control (ratio to day 0); higher = more growth / less cytotoxicity; PDxO 3D drug screen, 96 h, CTG-3D normalised to day-0 seeding control.
Conditions: 12.5 pM; days in culture: 190
endpoint.name: CTG-3D luminescence at 96 h

C[C@]12CC[C@@H]3c4ccc(O)cc4C[C@@H](CCCCCCCCC[S+]([O-])CCCC(F)(F)C(F)(F)F)[C@H]3[C@@H]1CC[C@@H]2O (stereo partly drawn)
1.79
C=CCn1c(=O)c2cnc(Nc3ccc(N4CCN(C)CC4)cc3)nc2n1-c1cccc(C(C)(C)O)n1
1.64
CCN(c1cc(C#CCN2CCOCC2)cc(C(=O)NCc2c(C)cc(C)[nH]c2=O)c1C)[C@H]1CC[C@H](N(C)CCOC)CC1
2.02

---

Test system: HCI-002 (organoid from a triple-negative breast cancer xenograft)
Experiment: CTG-3D luminescence at 96 h relative to day-0 seeding control (ratio to day 0); higher = more growth / less cytotoxicity; PDxO 3D drug screen, 96 h, CTG-3D normalised to day-0 seeding control.
Conditions: 0.00025 µM; days in culture: 191
Each entry below carries its reported CTG-3D luminescence at 96 h.
endpoint.name: CTG-3D luminescence at 96 h

NC(=O)c1cccc2cn(-c3ccc([C@@H]4CCCNC4)cc3)nc12 [niraparib]
2.98
CC1(C)CCC(c2ccc(Cl)cc2)=C(CN2CCN(c3ccc(C(=O)NS(=O)(=O)c4ccc(N[C@H](CCN5CCOCC5)CSc5ccccc5)c(S(=O)(=O)C(F)(F)F)c4)cc3)CC2)C1 [navitoclax]
3.04
COc1cc2c(Oc3ccc4[nH]c(C)cc4c3F)ncnc2cc1OCCCN1CCCC1 [cediranib]
2.65
CC(C)(C(=O)NCC(F)(F)C(F)(F)F)C(=O)N[C@@H]1C(=O)Nc2ccccc2-c2ccccc21
2.44
C[C@H](NC(=O)CCC(F)(F)F)C(=O)N[C@@H]1C(=O)N(CCO)c2ncccc2-c2ccccc21 [crenigacestat]
2.32
COc1cccc2c1C(=O)c1c(O)c3c(c(O)c1C2=O)C[C@@](O)(C(=O)CO)C[C@@H]3O[C@H]1C[C@H](N)[C@H](O)[C@H](C)O1 [doxorubicin]
2.53
NC1(C(=O)N[C@@H](CCO)c2ccc(Cl)cc2)CCN(c2nc[nH]c3nccc2-3)CC1 [capivasertib]
2.72

---

Test system: HCI-025 (organoid from a breast cancer xenograft)
Assay: CTG-3D luminescence at 96 h relative to day-0 seeding control (ratio to day 0); higher = more growth / less cytotoxicity; PDxO 3D drug screen (set 2), 96 h, CTG-3D normalised to day-0 seeding control.
Conditions: 0.1 µM; days in culture: 212
endpoint.name: CTG-3D luminescence at 96 h

CCOc1ccn(-c2ccc(F)cc2)c(=O)c1C(=O)Nc1ccc(Oc2ccnc(N)c2Cl)c(F)c1
1.18
Cc1c(CN2CCN(C(=O)[C@H](C)O)CC2)sc2c(N3CCOCC3)nc(-c3cnc(N)nc3)nc12
0.777
CC(C)n1nc(-c2ccc3oc(N)nc3c2)c2c(N)ncnc21
0.0755
CO[C@H]1C[C@@H]2CC[C@@H](C)[C@@](O)(O2)C(=O)C(=O)N2CCCC[C@H]2C(=O)O[C@H]([C@H](C)C[C@@H]2CC[C@@H](O)[C@H](OC)C2)CC(=O)[C@H](C)/C=C(\C)[C@@H](O)[C@@H](OC)C(=O)[C@H](C)C[C@H](C)/C=C/C=C/C=C/1C
1.27
CO[C@H]1C[C@@H]2CC[C@@H](C)[C@@](O)(O2)C(=O)C(=O)N2CCCC[C@H]2C(=O)O[C@H]([C@H](C)C[C@@H]2CC[C@@H](OCCO)[C@H](OC)C2)CC(=O)[C@H](C)/C=C(\C)[C@@H](O)[C@@H](OC)C(=O)[C@H](C)C[C@H](C)/C=C/C=C/C=C/1C
0.487

---

Each entry below carries its reported CTG-3D luminescence at 96 h.
System: HCI-019 (organoid from a triple-negative breast cancer xenograft)
Assay: CTG-3D luminescence at 96 h relative to day-0 seeding control (ratio to day 0); higher = more growth / less cytotoxicity; PDxO 3D drug screen (set 2), 96 h, CTG-3D normalised to day-0 seeding control.
Conditions: 0.00025 µM; days in culture: 194
endpoint.name: CTG-3D luminescence at 96 h

CCOc1ccn(-c2ccc(F)cc2)c(=O)c1C(=O)Nc1ccc(Oc2ccnc(N)c2Cl)c(F)c1 [ASLAN002]
1.59
CO[C@H]1C[C@@H]2CC[C@@H](C)[C@@](O)(O2)C(=O)C(=O)N2CCCC[C@H]2C(=O)O[C@H]([C@H](C)C[C@@H]2CC[C@@H](OCCO)[C@H](OC)C2)CC(=O)[C@H](C)/C=C(\C)[C@@H](O)[C@@H](OC)C(=O)[C@H](C)C[C@H](C)/C=C/C=C/C=C/1C [everolimus]
0.886
CS(=O)(=O)CCNCc1ccc(-c2ccc3ncnc(Nc4ccc(OCc5cccc(F)c5)c(Cl)c4)c3c2)o1 [lapatinib]
2.84
Cc1c(CN2CCN(C(=O)[C@H](C)O)CC2)sc2c(N3CCOCC3)nc(-c3cnc(N)nc3)nc12 [apitolisib]
1.96
